We begin with a simple list: items and their reported clearance.
- protocol: in vivo
- runConditions: Alderley Park Han Wistar, rat, plasma, iv, 2 mg/kg
property: clearance (mL/min/kg)

# smilesStructure, property, qualifyingSign, observed
data = [
    ("Cc1noc2cc(N3CCN(C(=O)[C@@H]4CCCC[C@H]4C(=O)NC4(C#N)CC4)[C@H](C)C3)ccc12", "clearance", "=", 29),
    ("N#CC1(NC(=O)[C@@H]2CCCC[C@H]2C(=O)N2CCN(c3ccccc3)CC2)CC1", "clearance", "=", 19),
    ("N#CC1(NC(=O)[C@@H]2CCCC[C@H]2C(=O)N2CCN(c3ccc(F)cc3)CC2)CC1", "clearance", "=", 36),
    ("COc1ccc(N2CCN(C(=O)[C@@H]3CCCC[C@H]3C(=O)NC3(C#N)CC3)CC2)cc1", "clearance", ">", 73),
    ("COc1ccc(N2CCN(C(=O)[C@@H]3CCCC[C@H]3C(=O)NC3(C#N)CC3)CC2)cc1OC", "clearance", "=", 29),
]

* * *

- protocol: Percentage unbound in human plasma
- Format: ADME, cell-free
We begin with a simple list: items and their reported fraction unbound.

# smilesStructure, qualifyingSign, fraction unbound
records = [
    ("CS(=O)(=O)c1ccc(N2CCN(C(=O)[C@@H]3CCCC[C@H]3C(=O)NC3(C#N)CC3)CC2)cc1", ">", 0.5),
    ("N#CCNC(=O)[C@@H]1CCCC[C@H]1C(=O)N1CCN(c2ccc(C#N)cc2)CC1", "=", 0.53),
    ("N#CCNC(=O)[C@@H]1CCCC[C@H]1C(=O)N1CCN(c2ccc(F)cc2)CC1", "=", 0.39),
    ("COc1ccc(N2CCN(C(=O)[C@@H]3CCCC[C@H]3C(=O)NC3(C#N)CC3)CC2)cc1", "=", 0.46),
    ("N#CC1(NC(=O)[C@@H]2CCCC[C@H]2C(=O)N2CCN(c3ccccc3)CC2)CC1", ">", 0.28),
]

* * *

- protocol: Metabolic stability of the compound in rat liver microsomes assessed as compound turnover after 120 mins
We begin with a simple list: items and their reported microsomal CLint at 2 h.

# smilesStructure, qualifyingSign, microsomal CLint at 2 h, µL/min/mg
measured = [
    ("C[C@@H]1CN(c2ccc3c(c2)OCO3)CCN1C(=O)[C@@H]1CCCC[C@H]1C(=O)NC1(C#N)CC1", "=", 83),
    ("COc1ccc(N2CCN(C(=O)[C@@H]3CCCC[C@H]3C(=O)NC3(C#N)CC3)CC2)cc1OC", "<", 7.4),
    ("C[C@@H]1CN(c2ccc(S(C)(=O)=O)cc2)CCN1C(=O)[C@@H]1CCCC[C@H]1C(=O)NC1(C#N)CC1", "<", 2),
    ("COc1ccc(N2CCN(C(=O)[C@@H]3CCCC[C@H]3C(=O)NC3(C#N)CC3)[C@H](C)C2)nc1OC", "=", 13),
    ("C[C@@H]1CN(c2ccccc2)CCN1C(=O)[C@@H]1CCCC[C@H]1C(=O)NCC#N", ">", 347),
    ("COc1ccc(N2CCN(C(=O)[C@@H]3CCCC[C@H]3C(=O)NCC#N)CC2)cc1", "=", 77),
    ("COc1cc(N2CCN(C(=O)[C@@H]3CCCC[C@H]3C(=O)NC3(C#N)CC3)[C@H](C)C2)ccc1C1CC1", "=", 33),
    ("C[C@H]1CN(c2ccc(S(C)(=O)=O)cc2)CCN1C(=O)[C@@H]1CCCC[C@H]1C(=O)NC1(C#N)CC1", "<", 2),
]

* * *

- protocol: Percentage unbound in rat plasma
- Assay type: ADME, cell-free
Under this convention, yes denotes fraction unbound strictly below 0.3 and no denotes fraction unbound at or above 0.3.

# smilesStructure, qualitativeLabel
data = [
    ("Cc1noc2cc(N3CCN(C(=O)[C@@H]4CCCC[C@H]4C(=O)NC4(C#N)CC4)[C@H](C)C3)ccc12", "yes"),
    ("N#CC1(NC(=O)[C@@H]2CCCC[C@H]2C(=O)N2CCN(c3ccccc3)CC2)CC1", "yes"),
    ("N#CC1(NC(=O)[C@@H]2CCCC[C@H]2C(=O)N2CCN(c3ccc(F)cc3)CC2)CC1", "no"),
    ("COc1cc(N2CCN(C(=O)[C@@H]3CCCC[C@H]3C(=O)NC3(C#N)CC3)[C@H](C)C2)ccc1C1CC1", "yes"),
    ("Cc1nnc(C)c2cc(N3CCN(C(=O)[C@@H]4CCCC[C@H]4C(=O)NC4(C#N)CC4)[C@H](C)C3)ccc12", "no"),
    ("COc1ccc(N2CCN(C(=O)[C@@H]3CCCC[C@H]3C(=O)NC3(C#N)CC3)[C@H](C)C2)cc1OC", "no"),
    ("COc1ccc(N2CCN(C(=O)[C@@H]3CCCC[C@H]3C(=O)NC3(C#N)CC3)CC2)cc1", "yes"),
    ("COc1ccc(N2CCN(C(=O)[C@@H]3CCCC[C@H]3C(=O)NC3(C#N)CC3)[C@H](C)C2)nc1OC", "no"),
    ("Cc1nn(C)c2ccc(N3CCN(C(=O)[C@@H]4CCCC[C@H]4C(=O)NC4(C#N)CC4)[C@H](C)C3)cc12", "yes"),
]

* * *

- protocol: Volume of distribution at steady state in Alderley Park Han Wistar rat at 2 mg/kg, iv and 2 mg/kg, po
- Assay type: ADME, organism-based
- runConditions: in vivo, read-out: Vdss
Kind request: treat 2 L/kg as inclusive, so Vd at 2 L/kg or higher is 1.0, anything lower is 0.0.

# smilesStructure, qualitativeLabel
records = [
    ("Cc1nn(C)c2ccc(N3CCN(C(=O)[C@@H]4CCCC[C@H]4C(=O)NC4(C#N)CC4)[C@H](C)C3)cc12", 1.0),
    ("Cc1nnc(C)c2cc(N3CCN(C(=O)[C@@H]4CCCC[C@H]4C(=O)NC4(C#N)CC4)[C@H](C)C3)ccc12", 1.0),
    ("COc1ccc(N2CCN(C(=O)[C@@H]3CCCC[C@H]3C(=O)NC3(C#N)CC3)CC2)cc1", 0.0),
    ("COc1cc(N2CCN(C(=O)[C@@H]3CCCC[C@H]3C(=O)NC3(C#N)CC3)[C@H](C)C2)ccc1C1CC1", 1.0),
    ("COc1ccc(N2CCN(C(=O)[C@@H]3CCCC[C@H]3C(=O)NC3(C#N)CC3)[C@H](C)C2)nc1OC", 0.0),
    ("N#CC1(NC(=O)[C@@H]2CCCC[C@H]2C(=O)N2CCN(c3ccccc3)CC2)CC1", 0.0),
    ("Cc1noc2cc(N3CCN(C(=O)[C@@H]4CCCC[C@H]4C(=O)NC4(C#N)CC4)[C@H](C)C3)ccc12", 1.0),
    ("Cc1nn(C)c2cc(N3CCN(C(=O)[C@@H]4CCCC[C@H]4C(=O)NC4(C#N)CC4)[C@H](C)C3)ccc12", 1.0),
    ("N#CC1(NC(=O)[C@@H]2CCCC[C@H]2C(=O)N2CCN(c3ccc(F)cc3)CC2)CC1", 0.0),
    ("COc1ccc(N2CCN(C(=O)[C@@H]3CCCC[C@H]3C(=O)NC3(C#N)CC3)[C@H](C)C2)cc1OC", 0.0),
]

* * *

We begin with a simple list: items and their reported pIC50.
- targetDesc: Cathepsin K (Homo sapiens, UniProt P43235)
- Sequence (P43235 whole entry): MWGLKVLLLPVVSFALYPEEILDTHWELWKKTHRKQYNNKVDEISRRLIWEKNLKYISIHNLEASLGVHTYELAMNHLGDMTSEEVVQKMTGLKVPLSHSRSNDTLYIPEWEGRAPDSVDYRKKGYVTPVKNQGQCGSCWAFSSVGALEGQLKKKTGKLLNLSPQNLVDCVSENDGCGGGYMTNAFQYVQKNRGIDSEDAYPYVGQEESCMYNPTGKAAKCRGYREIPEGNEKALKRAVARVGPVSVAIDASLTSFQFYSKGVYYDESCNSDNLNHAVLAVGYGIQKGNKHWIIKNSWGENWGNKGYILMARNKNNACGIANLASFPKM
- protocol: Inhibition of human recombinant cathepsin-k using Z-Phe-Arg-AMC as substrate preincubated for 15 mins measured after 1 hr by QFRET assay
pIC50: −log10 of the molar value.

# smilesStructure, targetDesc, pIC50
records = [
    ("C[C@@H]1CN(c2ccccc2)CCN1C(=O)[C@@H]1CCCC[C@H]1C(=O)NCC#N", "Cathepsin K (Homo sapiens, UniProt P43235)", 8.22),
    ("Cc1nn(C)c2ccc(N3CCN(C(=O)[C@@H]4CCCC[C@H]4C(=O)NC4(C#N)CC4)[C@H](C)C3)cc12", "Cathepsin K (Homo sapiens, UniProt P43235)", 8.05),
    ("C[C@H]1CN(c2ccc(S(C)(=O)=O)cc2)CCN1C(=O)[C@@H]1CCCC[C@H]1C(=O)NC1(C#N)CC1", "Cathepsin K (Homo sapiens, UniProt P43235)", 7.23),
    ("COc1ccc(N2CCN(C(=O)[C@@H]3CCCC[C@H]3C(=O)NC3(C#N)CC3)CC2)cc1OC", "Cathepsin K (Homo sapiens, UniProt P43235)", 8.05),
    ("Cc1ccc(N2CCN(C(=O)[C@@H]3CCCC[C@H]3C(=O)NCC#N)CC2)cc1", "Cathepsin K (Homo sapiens, UniProt P43235)", 7.96),
]
